Tested on: tobacco bacterial rot (Pectobacterium carotovorum)
assay-overview: Suppression of tobacco bacterial rot
Format: in vivo, Pectobacterium carotovorum SCC1
protocol-conditions: Table 4, tobacco, 10 ppm
Square brackets hold non-standard residues; d marks the D form. Peptide text beside a SMILES is read from it. * marks the point of attachment. Boc = CC(C)(C)OC(=O)*; OtBu = CC(C)(C)O*
Note to self: Lesion outbreak rate under 40% means y, ties and anything higher get n.

{"compound": "COC(=O)[C@H]1CCCN1C(=O)[C@H](C)NC(=O)OC(C)(C)C [Compound 44] (Boc-Ala-[dP]-OMe)", "assigned-class": "y"}
{"compound": "COC(=O)[C@@H]1CCCN1C(=O)[C@H](CC(=O)OC(C)(C)C)NC(=O)OC(C)(C)C [Compound 25] (Boc-Asp(OtBu)-Pro-OMe)", "assigned-class": "n"}
{"compound": "COC(=O)[C@H]1CCCN1C(=O)[C@H](CCC(N)=O)NC(=O)OC(C)(C)C [Compound 45] (Boc-Gln-[dP]-OMe)", "assigned-class": "y"}
{"compound": "COC(=O)[C@@H]1CCCN1C(=O)[C@H](CCC(=O)OC(C)(C)C)NC(=O)OC(C)(C)C [Compound 30] (Boc-Glu(OtBu)-Pro-OMe)", "assigned-class": "y"}
{"compound": "CSC(=O)c1cccc2nnsc12 [BTH, reference compound]", "assigned-class": "n"}
{"compound": "COC(=O)[C@H]1CCCN1C(=O)[C@H](Cc1c[nH]c2ccccc12)NC(=O)OC(C)(C)C [Compound 43] (Boc-Trp-[dP]-OMe)", "assigned-class": "n"}

---

System: pepper phytophthora blight (Phytopthora capsici)
assay-overview: Suppression of pepper phytophthora blight on leaves
Format: in vivo
protocol-conditions: pepper leaves, 1.0 ppm
Method: The peppers were raised in the same method as Example 3, and then, the test compounds were dissolved in 20% methanol to make a stock solution, and a stock was diluted to the concentrations of 0.1, 1.0, and 10.0 ppm. The test solutions were sprayed on the leaves or drench-treated on the leaves. […] The paper disc was located in the center of the leaves that were cut roundly, and then, after about 7 days, the lesion area was measured. […]
Square brackets hold non-standard residues; d marks the D form. Peptide text beside a SMILES is read from it. * marks the point of attachment. Boc = CC(C)(C)OC(=O)*
Catalogue of Lesion outbreak rate values

{"compound": "COC(=O)[C@@H](NC(=O)CN)C(C)C [Compound 88] (H-Gly-Val-OMe)", "test-system": "pepper phytophthora blight (Phytopthora capsici)", "Lesion outbreak rate / area %": 33}
{"compound": "COC(=O)[C@@H]1CCCN1C(=O)CNC(=O)OC(C)(C)C [Compound 106] (Boc-Gly-Pro-OMe)", "test-system": "pepper phytophthora blight (Phytopthora capsici)", "Lesion outbreak rate / area %": 26}
{"compound": "COC(=O)[C@H](Cc1ccccc1)NC(=O)[C@@H](N)CC(=O)O [Compound 89] (H-Asp-Phe-OMe)", "test-system": "pepper phytophthora blight (Phytopthora capsici)", "Lesion outbreak rate / area %": 2.3}
{"compound": "COC(=O)[C@@H]1CCCN1C(=O)[C@H](N)CS [Compound 78] (H-[dC]-Pro-OMe)", "test-system": "pepper phytophthora blight (Phytopthora capsici)", "Lesion outbreak rate / area %": 47}

---

Test system: tobacco bacterial rot (Pectobacterium carotovorum)
assay-overview: Suppression of tobacco bacterial rot
Format: in vivo, Pectobacterium carotovorum SCC1
protocol-conditions: Table 6, tobacco, 1 ppm
Square brackets hold non-standard residues; d marks the D form. Peptide text beside a SMILES is read from it. * marks the point of attachment. Trt = c1ccc(C(c2ccccc2)(c2ccccc2)*)cc1; Boc = CC(C)(C)OC(=O)*

{"compound": "COC(=O)[C@H](C)NC(=O)[C@H](Cc1ccc(O)cc1)NC(=O)OC(C)(C)C", "test-system": "tobacco bacterial rot (Pectobacterium carotovorum)", "Lesion outbreak rate": "75%"}
{"compound": "COC(=O)[C@@H]1CCCN1C(=O)[C@H](Cc1ccccc1)NC(=O)OC(C)(C)C [Compound 19] (Boc-Phe-Pro-OMe)", "test-system": "tobacco bacterial rot (Pectobacterium carotovorum)", "Lesion outbreak rate": "49%"}
{"compound": "COC(=O)CNC(=O)CNC(=O)OC(C)(C)C [Compound 18] (Boc-Gly-Gly-OMe)", "test-system": "tobacco bacterial rot (Pectobacterium carotovorum)", "Lesion outbreak rate": "80%"}
{"compound": "CSC(=O)c1cccc2nnsc12 [BTH, reference compound]", "test-system": "tobacco bacterial rot (Pectobacterium carotovorum)", "Lesion outbreak rate": "100%"}
{"compound": "COC(=O)[C@H]1CCCN1C(=O)[C@@H](Cc1c[nH]c2ccccc12)NC(=O)OC(C)(C)C [Compound 73] (Boc-[dW]-[dP]-OMe)", "test-system": "tobacco bacterial rot (Pectobacterium carotovorum)", "Lesion outbreak rate": "35%"}
{"compound": "COC(=O)[C@H]1CCCN1C(=O)[C@H](CSC(c1ccccc1)(c1ccccc1)c1ccccc1)NC(=O)OC(C)(C)C [Compound 74] (Boc-Cys(Trt)-[dP]-OMe)", "test-system": "tobacco bacterial rot (Pectobacterium carotovorum)", "Lesion outbreak rate": "25%"}
{"compound": "COC(=O)[C@H]1CCCN1C(=O)[C@@H](CCC(N)=O)NC(=O)OC(C)(C)C [Compound 72] (Boc-[dQ]-[dP]-OMe)", "test-system": "tobacco bacterial rot (Pectobacterium carotovorum)", "Lesion outbreak rate": "55%"}
{"compound": "COC(=O)[C@H](C)NC(=O)CNC(=O)OC(C)(C)C [Compound 14] (Boc-Gly-Ala-OMe)", "test-system": "tobacco bacterial rot (Pectobacterium carotovorum)", "Lesion outbreak rate": "50%"}
{"compound": "COC(=O)[C@H]1CCCN1C(=O)[C@@H](C)NC(=O)OC(C)(C)C [Compound 70] (Boc-[dA]-[dP]-OMe)", "test-system": "tobacco bacterial rot (Pectobacterium carotovorum)", "Lesion outbreak rate": "80%"}
{"compound": "COC(=O)[C@H](C)NC(=O)[C@@H](NC(=O)OC(C)(C)C)C(C)C [Compound 12] (Boc-Val-Ala-OMe)", "test-system": "tobacco bacterial rot (Pectobacterium carotovorum)", "Lesion outbreak rate": "45%"}
{"compound": "COC(=O)[C@H]1CCCN1C(=O)[C@@H](Cc1ccccc1)NC(=O)OC(C)(C)C [Compound 65] (Boc-[dF]-[dP]-OMe)", "test-system": "tobacco bacterial rot (Pectobacterium carotovorum)", "Lesion outbreak rate": "80%"}
{"compound": "COC(=O)[C@@H]1CCCN1C(=O)[C@H](CCC(N)=O)NC(=O)OC(C)(C)C [Compound 23] (Boc-Gln-Pro-OMe)", "test-system": "tobacco bacterial rot (Pectobacterium carotovorum)", "Lesion outbreak rate": "25%"}
{"compound": "COC(=O)[C@H](Cc1c[nH]c2ccccc12)NC(=O)[C@@H](NC(=O)OC(C)(C)C)C(C)C [Compound 17] (Boc-Val-Trp-OMe)", "test-system": "tobacco bacterial rot (Pectobacterium carotovorum)", "Lesion outbreak rate": "100%"}
{"compound": "COC(=O)[C@@H]1CCCN1C(=O)[C@H](CC(C)C)NC(=O)OC(C)(C)C [Compound 22] (Boc-Leu-Pro-OMe)", "test-system": "tobacco bacterial rot (Pectobacterium carotovorum)", "Lesion outbreak rate": "35%"}
{"compound": "COC(=O)[C@H]1CCCN1C(=O)[C@H](NC(=O)OC(C)(C)C)C(C)C [Compound 76] (Boc-[dV]-[dP]-OMe)", "test-system": "tobacco bacterial rot (Pectobacterium carotovorum)", "Lesion outbreak rate": "46%"}

---

Tested on: tobacco bacterial rot (Pectobacterium carotovorum)
assay-overview: Suppression of tobacco bacterial rot
Format: in vivo, Pectobacterium carotovorum SCC1
protocol-conditions: Table 5, tobacco, 100 ppm
Square brackets hold non-standard residues; d marks the D form. Peptide text beside a SMILES is read from it. * marks the point of attachment. Trt = c1ccc(C(c2ccccc2)(c2ccccc2)*)cc1; Boc = CC(C)(C)OC(=O)*; OtBu = CC(C)(C)O*

{"molecule": "COC(=O)[C@@H]1CCCN1C(=O)[C@@H](CC(C)C)NC(=O)OC(C)(C)C [Compound 57] (Boc-[dL]-Pro-OMe)", "Lesion outbreak rate [%]": 25}
{"molecule": "COC(=O)[C@@H]1CCCN1C(=O)[C@H](CSC(c1ccccc1)(c1ccccc1)c1ccccc1)NC(=O)OC(C)(C)C [Compound 61] (Boc-Cys(Trt)-Pro-OMe)", "Lesion outbreak rate [%]": 16}
{"molecule": "COC(=O)[C@H]1CCCN1C(=O)[C@H](CCC(=O)OC(C)(C)C)NC(=O)OC(C)(C)C [Compound 50] (Boc-Glu(OtBu)-[dP]-OMe)", "Lesion outbreak rate [%]": 60}

---

System: tobacco bacterial rot (Pectobacterium carotovorum)
assay-overview: Suppression of tobacco bacterial rot
Format: in vivo, Pectobacterium carotovorum SCC1
protocol-conditions: Table 6, tobacco, 10 ppm
Square brackets hold non-standard residues; d marks the D form. Peptide text beside a SMILES is read from it. * marks the point of attachment. Boc = CC(C)(C)OC(=O)*

{"compound": "COC(=O)[C@H]1CCCN1C(=O)[C@@H](Cc1ccc(O)cc1)NC(=O)OC(C)(C)C [Compound 71] (Boc-[dY]-[dP]-OMe)", "test-system": "tobacco bacterial rot (Pectobacterium carotovorum)", "Lesion outbreak rate, %": 65}
{"compound": "COC(=O)[C@H](C)NC(=O)[C@H](C)NC(=O)OC(C)(C)C [Compound 13] (Boc-Ala-Ala-OMe)", "test-system": "tobacco bacterial rot (Pectobacterium carotovorum)", "Lesion outbreak rate, %": 100}
{"compound": "COC(=O)[C@H]1CCCN1C(=O)[C@@H](Cc1ccccc1)NC(=O)OC(C)(C)C [Compound 65] (Boc-[dF]-[dP]-OMe)", "test-system": "tobacco bacterial rot (Pectobacterium carotovorum)", "Lesion outbreak rate, %": 57}
{"compound": "COC(=O)[C@H](C)NC(=O)[C@H](Cc1ccc(O)cc1)NC(=O)OC(C)(C)C", "test-system": "tobacco bacterial rot (Pectobacterium carotovorum)", "Lesion outbreak rate, %": 63}
{"compound": "COC(=O)[C@H](Cc1c[nH]c2ccccc12)NC(=O)CNC(=O)OC(C)(C)C [Compound 16] (Boc-Gly-Trp-OMe)", "test-system": "tobacco bacterial rot (Pectobacterium carotovorum)", "Lesion outbreak rate, %": 25}
{"compound": "COC(=O)[C@@H]1CCCN1C(=O)[C@H](CCC(N)=O)NC(=O)OC(C)(C)C [Compound 23] (Boc-Gln-Pro-OMe)", "test-system": "tobacco bacterial rot (Pectobacterium carotovorum)", "Lesion outbreak rate, %": 52}
{"compound": "COC(=O)[C@H]1CCCN1C(=O)[C@@H](CO)NC(=O)OC(C)(C)C [Compound 64] (Boc-[dS]-[dP]-OMe)", "test-system": "tobacco bacterial rot (Pectobacterium carotovorum)", "Lesion outbreak rate, %": 23}
